src = patent EP4578856A1

- measurementTarget: ROCK2 protein (Homo sapiens)
- Sequence (O75116 whole entry): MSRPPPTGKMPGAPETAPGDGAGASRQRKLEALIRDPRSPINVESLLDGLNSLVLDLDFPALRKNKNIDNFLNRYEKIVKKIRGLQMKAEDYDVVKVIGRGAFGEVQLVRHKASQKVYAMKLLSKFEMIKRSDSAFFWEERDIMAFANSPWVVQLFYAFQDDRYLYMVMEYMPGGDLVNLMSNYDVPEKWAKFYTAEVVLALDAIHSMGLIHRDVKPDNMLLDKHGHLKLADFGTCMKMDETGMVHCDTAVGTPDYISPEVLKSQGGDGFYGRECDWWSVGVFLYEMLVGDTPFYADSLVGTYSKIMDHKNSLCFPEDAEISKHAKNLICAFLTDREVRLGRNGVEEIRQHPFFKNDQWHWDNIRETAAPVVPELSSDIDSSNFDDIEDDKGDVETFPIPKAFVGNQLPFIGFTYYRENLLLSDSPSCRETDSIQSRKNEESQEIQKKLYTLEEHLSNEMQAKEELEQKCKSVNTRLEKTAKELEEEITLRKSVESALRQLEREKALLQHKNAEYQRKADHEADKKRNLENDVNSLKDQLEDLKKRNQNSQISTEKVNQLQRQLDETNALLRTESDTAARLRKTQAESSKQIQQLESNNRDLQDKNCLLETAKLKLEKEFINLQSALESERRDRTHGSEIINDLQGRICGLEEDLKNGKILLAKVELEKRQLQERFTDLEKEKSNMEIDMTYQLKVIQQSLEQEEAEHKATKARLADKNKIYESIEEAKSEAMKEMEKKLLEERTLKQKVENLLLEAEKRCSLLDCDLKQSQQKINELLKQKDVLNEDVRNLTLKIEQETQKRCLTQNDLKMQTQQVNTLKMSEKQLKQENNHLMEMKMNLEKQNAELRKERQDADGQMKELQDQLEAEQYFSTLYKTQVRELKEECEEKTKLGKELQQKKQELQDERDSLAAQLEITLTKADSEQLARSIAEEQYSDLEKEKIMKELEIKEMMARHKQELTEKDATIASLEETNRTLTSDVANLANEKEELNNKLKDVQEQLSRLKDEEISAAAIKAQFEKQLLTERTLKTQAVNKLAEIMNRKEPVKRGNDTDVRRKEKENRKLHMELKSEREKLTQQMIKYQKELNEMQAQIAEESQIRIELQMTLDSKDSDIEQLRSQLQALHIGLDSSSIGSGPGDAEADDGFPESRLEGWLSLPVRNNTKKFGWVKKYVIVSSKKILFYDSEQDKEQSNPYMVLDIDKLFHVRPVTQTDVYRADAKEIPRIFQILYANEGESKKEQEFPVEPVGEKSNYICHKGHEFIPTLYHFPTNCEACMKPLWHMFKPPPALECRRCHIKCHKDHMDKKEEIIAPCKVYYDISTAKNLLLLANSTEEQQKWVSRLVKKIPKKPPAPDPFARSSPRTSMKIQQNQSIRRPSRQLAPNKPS
- protocolSummary: Degradation inducing activity of ROCK2 protein in HUVEC cells, Western blotting (Simple Western JESS)
- Assay type: cell-based
- Design: endogenous in cells; host or cells: HUVEC (ATCC CRL-1730)
- particulars: HUVEC, 24 h, degradation rate at 10 µM
Entries and their measured inhibition at 10 µM follow.

{"columns": ["structureSmiles", "measurementTarget", "inhibition at 10 µM"],
 "data": [
  ["COC[C@H]1CN[C@H](C)CN1CC(=O)N1CC(C)(C)c2ncc(Cc3cccc(OCCOCCOCCNC[C@@H](C(=O)Nc4ccc5cnccc5c4)c4ccccc4)c3)cc21", "ROCK2 protein (Homo sapiens)", "≥ 75%"],
  ["COC[C@H]1CN[C@H](C)CN1CC(=O)N1CC(C)(C)c2ncc(Cc3cccc(OCCOCCOCCOCCOCCOCCN[C@H](C)c4ccc(C(=O)Nc5ccncc5)cc4)c3)cc21", "ROCK2 protein (Homo sapiens)", "≥ 75%"],
  ["COC[C@H]1CN[C@H](C)CN1CC(=O)N1CC(C)(C)c2nc(CN(C)CCOCCOCCOCCOCCOCCNC[C@@H](C(=O)Nc3ccc4cnccc4c3)c3ccccc3)c(Cc3ccc(F)cc3)cc21", "ROCK2 protein (Homo sapiens)", "50 to 75%"],
  ["COC[C@H]1CN[C@H](C)CN1CC(=O)N1CC(C)(C)c2ncc(Cc3cccc(OCCOCCOCCOCCOCCOCCOCCOCCN[C@H](C)c4ccc(C(=O)Nc5ccncc5)cc4)c3)cc21", "ROCK2 protein (Homo sapiens)", "50 to 75%"],
  ["C[C@@H]1CN(CC(=O)N2CC(C)(C)c3ncc(Cc4ccc(F)cc4)cc32)[C@@H](CN(C)CCOCCOCCNC[C@@H](C(=O)Nc2ccc3cnccc3c2)c2ccccc2)CN1", "ROCK2 protein (Homo sapiens)", "≥ 75%"]
]}

With those in mind, consider the next compound.
**Q:** Tell me reported inhibition at 10 µM for "C[C@@H]1CN(CC(=O)N2CC(C)(C)c3ncc(Cc4ccc(F)cc4)cc32)[C@@H](CN(C)CCOCCOCCN[C@H](C)c2ccc(C(=O)Nc3ccncc3)cc2)CN1" , tested with ROCK2 protein (Homo sapiens).
**A:** 50 to 75%
